Tested on: NCI-H460 lung
Test: NCI tumour cell line growth inhibition, 48 h
QUANTITY_NAME: TGI

Measured TGI, `COc1cc2c(cc1O)c(O)cc1c3cc(OC)c(OC)cc3c[n+](C)c21` : > 100 µM

TGI in this record for `Cc1ccc(S(=O)(=O)Nc2cccc3c(=O)[nH]cnc23)cc1` : > 100 µM

According to the records, this compound `Cn1c(Cl)c(/C=C2/C(=O)Nc3ccccc32)c2ccccc21` displays TGI of > 32.2 µM

GET /value?item= `CN(C)CCOc1ccc([N+](=O)[O-])c2cccnc12` &field=TGI returns > 100 µM

The recorded TGI for entry `CC(=O)Oc1cc2c(cc1OC(C)=O)C1(C)CCC2(C)c2cc(OC(C)=O)c(OC(C)=O)cc21` equals 50 µM

Looking up `CNC1(c2cc3ccccc3s2)CCCCC1` , I see its TGI listed as 35.4 µM

TGI for `CC1(C)N=C(N)N=C(N)N1c1ccc(CCC(=O)Nc2ccc(S(=O)(=O)F)cc2)c(Cl)c1` is > 100 µM

Note to self: TGI recorded for `CCOC(=O)/C=C(\C(=O)OCC)n1cc(C)c(=O)n(Cc2cn(CCCCOC(C)=O)nn2)c1=O` was 26 µM

Short answer for `Oc1ccc2ccccc2c1N=Nc1cccc2ccccc12` : TGI was > 100 µM

TGI in this record for `O=C1C=C(Nc2ccccc2C(=O)CC(=O)C(=O)Nc2cccc([N+](=O)[O-])c2)c2ccccc2C1=O` : > 100 µM
